- Tested on: Mcl-1 (Homo sapiens, UniProt Q07820)
- Sequence (Q07820 whole entry): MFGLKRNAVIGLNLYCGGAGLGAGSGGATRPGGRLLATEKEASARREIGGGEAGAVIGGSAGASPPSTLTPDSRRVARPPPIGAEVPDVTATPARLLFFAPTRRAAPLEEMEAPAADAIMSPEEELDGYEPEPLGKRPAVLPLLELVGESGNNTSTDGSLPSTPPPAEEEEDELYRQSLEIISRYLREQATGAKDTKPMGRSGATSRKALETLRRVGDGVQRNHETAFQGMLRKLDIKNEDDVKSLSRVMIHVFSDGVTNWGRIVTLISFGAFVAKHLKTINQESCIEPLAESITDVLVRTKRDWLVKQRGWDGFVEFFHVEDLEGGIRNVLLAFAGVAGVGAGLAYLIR
pKi: −log10 of the molar value.

Compound | pKi
O=C(O)CSc1cc(NS(=O)(=O)c2ccc(Br)cc2)c2ccccc2c1O [UMI-77] | 6.31

====

- Tested on: BxPC-3
- Run parameters: read-out: IC50 cell growth inhibition, BxPC-3; 4 days treatment

Compound | IC50 / µM
O=C(O)CSc1cc(NS(=O)(=O)c2ccc(Br)cc2)c2ccccc2c1O [UMI-77] | 3.4

====

- Tested on: MiaPaCa-2
- Run parameters: read-out: IC50 cell growth inhibition, MiaPaCa-2; 4 days treatment
pIC50: −log10 of the molar value.

Chem smiles | pIC50
O=C(O)CSc1cc(NS(=O)(=O)c2ccc(Br)cc2)c2ccccc2c1O | 4.90

====

Below: a set of entries, each annotated with reported Ki.
- Tested on: A1/Bfl-1 (Homo sapiens)
- Sequence (Q16548 whole entry): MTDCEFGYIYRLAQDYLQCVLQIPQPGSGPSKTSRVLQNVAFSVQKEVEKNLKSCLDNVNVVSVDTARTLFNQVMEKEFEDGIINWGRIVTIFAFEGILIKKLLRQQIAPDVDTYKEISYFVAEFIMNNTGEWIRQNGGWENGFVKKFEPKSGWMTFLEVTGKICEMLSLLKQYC
- Method description: FP-based competitive binding assay using fluorescent labeled Bid BH3 peptide
- Run parameters: read-out: Ki ± SD, A1/Bfl-1; competitive FP assay, Bid BH3 peptide
Measured parameter: Ki (µM)

Chem smiles | Measured parameter | Test value
O=C(O)CSc1cc(NS(=O)(=O)c2cccs2)c2ccccc2c1O | Ki | 6.14
O=C(O)CSc1cc(NS(=O)(=O)c2ccc(Br)cc2)c2ccccc2c1O | Ki | 5.33

====

- Tested on: Mcl-1 (Homo sapiens, UniProt Q07820)
Measured parameter: IC50 (nM)

Chem smiles | Test value
O=C(O)CSc1cc(NS(=O)(=O)c2ccc(Br)cc2)c2ccccc2c1O | 310

====

- Tested on: AsPC-1
- Run parameters: read-out: IC50 cell growth inhibition, AsPC-1; 4 days treatment
Measured parameter: IC50 (µM)

Compound | Units text | Test value
O=C(O)CSc1cc(NS(=O)(=O)c2ccc(Br)cc2)c2ccccc2c1O [UMI-77] | µM | 16.1
